test system: CEM cells HIV-1 protection, formazan growth assay; assay: NCI AIDS Antiviral Assay; details: measured here: growth of uninfected CEM cells
endpointLabel: IC50 (µM)
Respond numerically; units are µM and should not be typed.

[
  {
    "chemSmiles": "O=C1C(=Cc2c[nH]c3ccccc23)C(=O)c2ccccc21",
    "endpointLabel": "IC50",
    "observedValue": 191
  },
  {
    "chemSmiles": "Cc1cc(C2=CSC3=NCCN23)ccc1Cl",
    "endpointLabel": "IC50",
    "observedValue": 151
  },
  {
    "chemSmiles": "O=C(O)c1cscc1-c1cccc2ccccc12",
    "endpointLabel": "IC50",
    "observedValue": 158
  },
  {
    "chemSmiles": "Cc1ccc2c(c1)[n+]([O-])c(N)n[n+]2[O-]",
    "endpointLabel": "IC50",
    "observedValue": 19.1
  }
]

Okay, next one:
Sample COC(=O)CSc1nnc(CSc2ccc(Cl)cc2)n1-c1ccccc1 — what was its IC50?
105

---

test system: CEM cells HIV-1 protection, formazan growth assay; assay: NCI AIDS Antiviral Assay; settings: measured here: growth of uninfected CEM cells
# pIC50 per record follows
Recall that pIC50 is obtained by taking minus log10 of the concentration measured in molar.

[
  {
    "molecule": "CCCCCCCCCCCO/N=C\\c1c2c(O)c3c(O)c(C)c4c(c3c1O)C(=O)C(C)(O/C=C\\C(OC)C(C)C(OC(C)=O)C(C)C(O)C(C)C(O)C(C)/C=C\\C=C(\\C)C(=O)N2)O4 (stereo not given)",
    "pIC50": 5.52
  }
]

Okay, next one:
Lab note: need pIC50 for O=C(NS(=O)(=O)Nc1ccc(Cl)cc1)OCc1ccc(Cl)cc1Cl on CEM cells HIV-1 protection, formazan growth assay, anyone have it?
4.46

---

tested on: CEM cells HIV-1 protection, formazan growth assay; experiment: NCI AIDS Antiviral Assay; settings: measured here: growth of uninfected CEM cells
endpointLabel: pIC50
Recall that pIC50 is obtained by taking minus log10 of the concentration measured in molar.

[
  {
    "chemSmiles": "O=S(=O)([O-])c1ccc2c(c1)-c1nc-2nc2[n-]c(nc3nc(nc4[n-]c(n1)c1ccc(S(=O)(=O)[O-])cc41)-c1cc(S(=O)(=O)[O-])ccc1-3)c1ccc(S(=O)(=O)[O-])cc21.[Cu+2].[Na+]",
    "pIC50": 6.22
  }
]

Okay, next one:
Sample Cc1cc2c(c(S(=O)(=O)c3ccccc3[N+](=O)[O-])c1)NCCC2 — what was its pIC50?
4.67

---

tested on: CEM cells HIV-1 protection, formazan growth assay; test: NCI AIDS Antiviral Assay; conditions: measured here: growth of uninfected CEM cells
Hi! Just check whether IC50 is below 40 µM. Below gives Criterion met, equal or above gives Criterion not met.

Criterion: IC50 strictly below 40 µM. Is it met by CNC(=O)CNC(=O)N(C[C@@H]1CCCN1C(=O)[C@H](CC(C)C)NC(=O)OC(C)(C)C)C(C)C ?
Criterion not met

Criterion: IC50 strictly below 40 µM. Is it met by CC(=O)N1CCN(C=S)CC1 ?
Criterion not met

Criterion: IC50 strictly below 40 µM. Is it met by O=C(O)c1ccccc1S(=O)O ?
Criterion not met

Criterion: IC50 strictly below 40 µM. Is it met by Cc1cc(S(=O)(=O)n2ccnc2Oc2ccccc2N)c(SSc2cc(Cl)c(C)cc2S(=O)(=O)n2ccnc2Oc2ccccc2N)cc1Cl ?
Criterion met

Criterion: IC50 strictly below 40 µM. Is it met by Oc1ccc(N=C2N=c3c(c4ccccc4c4ccccc34)=N2)c2ccccc12 ?
Criterion met

Criterion: IC50 strictly below 40 µM. Is it met by N#CC1(C#N)NC(c2ccsc2)C(C#N)(C#N)NC1c1ccsc1 (stereo not drawn) ?
Criterion not met
